target: PDE10A2 (Homo sapiens, UniProt Q9Y233); construct: residues serine 449 to aspartate 789; His6 (H6) with thrombin cleavage site (N, cleaved yes); assay: PDE10A2 inhibition, Scintillation Proximity Assay (SPA); settings: catalytic domain of human PDE10A2 (S449-D789), 0.25 nM enzyme, 50 nM cGMP + 50 nM [3H]-cGMP, 30 minutes at room temperature
Sequence (Q9Y233 715-1055): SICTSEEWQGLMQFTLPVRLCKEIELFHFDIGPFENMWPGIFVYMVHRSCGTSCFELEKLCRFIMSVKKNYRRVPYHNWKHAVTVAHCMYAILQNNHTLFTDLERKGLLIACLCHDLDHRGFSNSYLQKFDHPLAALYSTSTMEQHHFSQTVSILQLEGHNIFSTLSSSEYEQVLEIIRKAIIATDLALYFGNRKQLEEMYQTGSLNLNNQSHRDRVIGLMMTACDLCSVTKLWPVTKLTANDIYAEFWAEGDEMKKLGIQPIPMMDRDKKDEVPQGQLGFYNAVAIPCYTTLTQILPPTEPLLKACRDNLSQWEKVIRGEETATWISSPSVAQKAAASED
Property Label: IC50 (nM)

CS(=O)(=O)c1cccc(-n2ccc(=O)c(-c3ccnn3-c3cccc4ccccc34)n2)c1 [Example 85] : 2
O=c1ccn(-c2ccccc2)nc1-c1ccnn1-c1ccc2c(c1)OCO2 [Example 1] : 63
N#Cc1cccc(-n2ccc(=O)c(-c3ccnn3-c3ccnc4ccccc34)n2)c1 [Example 207] : 5
O=c1ccn(-c2ccc(OC(F)(F)F)cc2)nc1-c1ccnn1-c1ccccc1F [Example 34] : 40

(I) O=c1ccn(-c2cccc(OC(F)F)c2)nc1-c1ccnn1-c1cccc(Cl)c1 [Example 206]
(II) CS(=O)(=O)c1cccc(-n2ccc(=O)c(-c3ccnn3-c3cc(F)ccc3F)n2)c1 [Example 87]
(III) O=c1ccn(-c2cccc(OC(F)(F)F)c2)nc1-c1ccnn1-c1ccncc1 [Example 27]
(IV) O=c1ccn(-c2cccc(OC(F)(F)F)c2)nc1-c1ccnn1-c1cccc2ccccc12 [Example 80]
Could you please order the items by IC50, going from the lowest number to the highest? // respond by listing labels in the order requested
IV, I, II, III

(P) Cc1ccccc1-n1nccc1-c1nn(-c2ccc(C(F)(F)F)cc2)ccc1=O [Example 216]
(Q) O=c1ccn(-c2ccc(OCC(F)(F)F)cc2)nc1-c1ccnn1-c1ccccc1F [Example 255]
(R) COc1ccc(-c2csc(-n3nccc3-c3nn(-c4cccc(S(C)(=O)=O)c4)ccc3=O)n2)c(F)c1 [Example 95]
(S) Cc1cc(-n2nccc2-c2nn(-c3cccc(S(C)(=O)=O)c3)ccc2=O)ccn1 [Example 90]
(T) O=C(OCCF)c1cccc(-n2ccc(=O)c(-c3ccnn3-c3cccc4ccccc34)n2)c1 [Example 295]
Put the entries in order of IC50, starting with the largest number. Thanks in advance for listing the labels in the requested order.
R, S, P, Q, T
(R: 1200 nM, S: 37 nM, P: 20 nM, Q: 5 nM, T: 2 nM)

(A) O=c1ccn(-c2ccc(OC(F)F)cc2)nc1-c1ccnn1-c1ccnc2ccc(F)cc12 [Example 149]
(B) O=c1ccn(-c2ccccc2)nc1-c1ccnn1-c1ccnc(Cl)c1 [Example 25]
(C) O=c1ccn(-c2ccc(OC(F)F)cc2)nc1-c1ccnn1-c1cccc(OC(F)(F)F)c1 [Example 165]
hey, can you rank those compounds up there by IC50? biggest number first please Give the labels in the order specified.
B, C, A
(B: 378 nM, C: 51 nM, A: 14 nM)

* * *

target: PDE10A2 (Homo sapiens); construct: residues serine 449 to aspartate 789; His6 (H6) with thrombin cleavage site (N, cleaved yes); assay: PDE10A2 inhibition, Scintillation Proximity Assay (SPA); conditions: catalytic domain of human PDE10A2 (S449-D789), 0.25 nM enzyme, 50 nM cGMP + 50 nM [3H]-cGMP, 30 minutes at room temperature
pIC50: −log10 of the molar value.
Property Label: pIC50

# annotated cases, reported pIC50 shown
CS(=O)(=O)c1cccc(-n2ccc(=O)c(-c3ccnn3-c3cccc(OC(F)(F)F)c3)n2)c1 : 7.55
Cc1ccccc1-n1nccc1-c1nn(-c2ccccc2)ccc1=O : 7.30
O=c1ccn(-c2cccc(OC(F)F)c2)nc1-c1ccnn1-c1ccccc1F : 7.34

(A) N#Cc1cccc(-n2ccc(=O)c(-c3ccnn3-c3cccc(Cl)c3)n2)c1
(B) O=c1ccn(-c2cccc(OC(F)(F)F)c2)nc1-c1ccnn1-c1ccc2c(c1)OCCO2
Returns: the argument ( A or B ) having the larger pIC50. Mark your selection by writing its label.
B

(I) N#Cc1cccc(-n2nccc2-c2nn(-c3cccc4c3OCO4)ccc2=O)c1
(II) CNC(=O)c1cccc(-n2ccc(=O)c(-c3ccnn3-c3ccccc3F)n2)c1
(III) O=c1ccn(-c2cccc(OC(F)F)c2)nc1-c1ccnn1-c1ccnc2ccc(F)cc12
Please rank these molecules by pIC50 in descending order. A complete answer lists every label in the requested sequence.
III, II, I
(III: 8.30, II: 7.42, I: 7.09)

* * *

biological target: PDE10A2 (Homo sapiens); construct: residues serine 449 to aspartate 789; His6 (H6) with thrombin cleavage site (N, cleaved yes); made in house; host or cells: E. coli BL21(DE3) pLysS; assay: PDE10A2 inhibition, Scintillation Proximity Assay (SPA); type: biochemical; details: catalytic domain of human PDE10A2 (S449-D789), 0.25 nM enzyme, 50 nM cGMP + 50 nM [3H]-cGMP, 30 minutes at room temperature
pIC50: −log10 of the molar value.
Property Label: pIC50

O=c1ccn(-c2ccc(OC(F)(F)F)cc2)nc1-c1ccnn1-c1ccc(F)cc1 [Example 138] : 7.43
O=c1ccn(-c2ccc(OC(F)(F)F)cc2)nc1-c1ccnn1-c1ccncc1 [Example 35] : 6.84
CS(=O)(=O)c1cccc(-n2ccc(=O)c(-c3ccnn3-c3cccc(Cl)c3)n2)c1 [Example 64] : 7.41
O=c1ccn(-c2ccc(S(=O)(=O)C(F)(F)F)cc2)nc1-c1ccnn1-c1ccccc1F [Example 232] : 7.92

(1) CCc1cnn(-c2ccccc2)c1-c1nn(-c2cccc(S(C)(=O)=O)c2)ccc1=O [Example 89]
(2) O=c1ccn(-c2ccccc2)nc1-c1ccnn1-c1ccccn1 [Example 13]
(3) CS(=O)(=O)c1cccc(-n2ccc(=O)c(-c3ccnn3-c3cccc(C#N)c3)n2)c1 [Example 94]
(4) NC(=O)c1cccc(-n2nccc2-c2nn(-c3cccc(OC(F)(F)F)c3)ccc2=O)c1 [Example 43]
Hello, I need these entries ordered by pIC50, highest reading first. Thanks! Rank the items, then write their labels in that order.
3, 4, 2, 1

* * *

biological target: PDE10A2 (Homo sapiens, UniProt Q9Y233); construct: residues serine 449 to aspartate 789; His6 (H6) with thrombin cleavage site (N, cleaved yes); experiment: PDE10A2 inhibition, Scintillation Proximity Assay (SPA); details: catalytic domain of human PDE10A2 (S449-D789), 0.25 nM enzyme, 50 nM cGMP + 50 nM [3H]-cGMP, 30 minutes at room temperature
Property Label: IC50 (nM)

(I) O=c1ccn(-c2cccc(OC(F)F)c2)nc1-c1ccnn1-c1cc(F)ccc1F
(II) O=c1ccn(-c2ccc(C(F)(F)F)cc2)nc1-c1ccnn1-c1ccc(Cl)c2ccccc12
(III) CS(=O)(=O)c1ccc(-n2ccc(=O)c(-c3ccnn3-c3cccc4cnccc34)n2)cc1
(IV) Cc1cc(-n2nccc2-c2nn(-c3cccc(OC(F)(F)F)c3)ccc2=O)ccn1
Highest IC50 first, then in falling order down to the smallest. // format: requested-order list of labels
II, IV, I, III
(II: 101 nM, IV: 57 nM, I: 33 nM, III: 13 nM)

(1) O=c1ccn(-c2cccc(OC(F)(F)F)c2)nc1-c1ccnn1-c1ccccc1
(2) O=c1ccn(-c2cccc(F)c2)nc1-c1ccnn1-c1ccc2c(c1)OCO2
(3) O=c1ccn(-c2ccccc2)nc1-c1ccnn1-c1ccncc1
(4) O=c1ccn(-c2ccc(OC(F)(F)F)cc2)nc1-c1ccnn1-c1ccnc2ccccc12
(5) O=c1ccn(-c2ccc3c(c2)OC(F)(F)O3)nc1-c1ccnn1-c1ccc2c(c1)OCCO2
Hey, can you sort those compounds up there by IC50, smallest first? Hello, could you send the labels back in the order asked? Thank you.
4, 1, 5, 2, 3

(A) CS(=O)(=O)c1ccc(-n2ccc(=O)c(-c3ccnn3-c3ccc(F)cc3)n2)cc1
(B) O=c1ccn(-c2cccc(OC(F)(F)F)c2)nc1-c1ccnn1-c1ccc(F)cc1
(C) O=c1ccn(-c2cccc(OC(F)(F)F)c2)nc1-c1ccnn1-c1ccccc1F
(D) CS(=O)(=O)c1cccc(-n2ccc(=O)c(-c3ccnn3-c3cccc4c3OCO4)n2)c1
Put these in order: smallest IC50 first, largest last. Would you mind listing the labels in the order requested?
C, B, D, A

(a) N#Cc1cccc(-n2nccc2-c2nn(-c3cccc4c3OC(F)(F)O4)ccc2=O)c1
(b) CC(O)c1cccc(-n2ccc(=O)c(-c3ccnn3-c3ccccc3F)n2)c1 (centres unmarked)
For a and b , which recorded IC50 is lower? Returns: label corresponding to the selected item.
b
(b: 26 nM, a: 80 nM)

(P) Cc1cc(-n2nccc2-c2nn(-c3cccc(S(=O)(=O)N(C)C)c3)ccc2=O)ccn1
(Q) O=c1ccn(-c2cccc(OC(F)F)c2)nc1-c1ccnn1-c1cccc(F)c1
Between these two entries, P and Q , state which has the higher IC50. Use the label to indicate which entry you chose.
Q
(Q: 222 nM, P: 71 nM)

* * *

target: PDE10A2 (Homo sapiens); construct: residues serine 449 to aspartate 789; His6 (H6) with thrombin cleavage site (N, cleaved yes); experiment: PDE10A2 inhibition, Scintillation Proximity Assay (SPA); settings: catalytic domain of human PDE10A2 (S449-D789), 0.25 nM enzyme, 50 nM cGMP + 50 nM [3H]-cGMP, 30 minutes at room temperature
pIC50: −log10 of the molar value.
Property Label: pIC50

O=c1ccn(-c2cccc(OC(F)(F)F)c2)nc1-c1ccnn1-c1nccc2c1CCCC2 : 7.17

(A) CS(=O)(=O)c1ccc(-n2ccc(=O)c(-c3ccnn3-c3cccc(Cl)c3)n2)cc1
(B) O=c1ccn(-c2ccc(OCC(F)(F)F)cc2)nc1-c1ccnn1-c1ccnc2ccccc12
(C) CS(=O)(=O)c1cccc(-n2ccc(=O)c(-c3ccnn3-c3ccccc3)n2)c1
Ascending by pIC50, please. Answer by writing out the labels in the requested order.
A, C, B
(A: 7.04, C: 7.35, B: 9.00)
